We begin with a simple list: items and their reported inhibition at 3.7 µM.
Molecular target: Edg-1/S1P1 receptor (Homo sapiens, UniProt P21453)
Construct: expressed in transfected cells; host or cells: human osteogenic sarcoma U2OS cells: Edg-1 Transfluor U2OS WT Clone #37 (assay I), Edg-1 Transfluor U2OS Clone #3 (assay II)
Sequence (P21453 whole entry): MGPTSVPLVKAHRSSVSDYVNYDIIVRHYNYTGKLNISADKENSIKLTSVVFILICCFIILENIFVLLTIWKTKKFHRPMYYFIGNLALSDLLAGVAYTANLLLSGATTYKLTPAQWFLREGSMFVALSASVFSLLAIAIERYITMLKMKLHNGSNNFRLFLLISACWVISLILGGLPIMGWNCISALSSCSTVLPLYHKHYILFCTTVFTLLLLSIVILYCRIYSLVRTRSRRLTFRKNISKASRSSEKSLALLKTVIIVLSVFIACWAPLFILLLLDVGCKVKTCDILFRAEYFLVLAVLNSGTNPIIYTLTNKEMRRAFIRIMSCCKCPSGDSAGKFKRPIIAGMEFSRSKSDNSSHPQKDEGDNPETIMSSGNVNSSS
Assay: In vitro cell based receptor activation assay - Transfluor assay (assay I or II; beta-arrestin GFP relocalization after S1P stimulation)
Settings: at 3.70 μM (titrated from top concentration 100 μM)
RECORDED_ENDPOINT: inhibition at 3.7 µM (%)

- CCn1c([C@@H](C)NS(=O)(=O)c2ccc(Cl)cc2)nc2cc(C(F)(F)F)c(Cl)cc21: 44.9
- CCn1c(C(Cc2cccnc2)NS(=O)(=O)c2ccc(Cl)cc2)nc2ccccc21 (stereo not shown): 79.7
- CC(NS(=O)(=O)c1ccc(Cl)cc1)c1nc2ccccc2n1C (stereo not shown): 91.2
- CCOC(=O)c1ccc2nc([C@@H](C)NS(=O)(=O)c3ccc(Cl)cc3)n(CC)c2c1 (stereo in doubt): 91.3

----------
Target: Edg-1/S1P1 receptor (Homo sapiens)
Construct: expressed in transfected cells; host or cells: human osteogenic sarcoma U2OS cells: Edg-1 Transfluor U2OS WT Clone #37 (assay I), Edg-1 Transfluor U2OS Clone #3 (assay II)
Test: In vitro cell based receptor activation assay - Transfluor assay (assay I or II; beta-arrestin GFP relocalization after S1P stimulation)
Details: at 3.50 μM (titrated from top concentration 10 μM)
RECORDED_ENDPOINT: inhibition at 3.5 µM

• CCn1c([C@@H](C)NS(=O)(=O)c2ccc(Cl)cc2)nc2ccc(C(F)(F)F)cc21 = 84.8%
• CCn1c([C@@H](C)NS(=O)(=O)c2ccc(Cl)cc2)nc2ccc(CO)cc21 (stereo in doubt) = 94.4%
• CCn1c([C@@H](C)NS(=O)(=O)c2ccc(S(C)(=O)=O)cc2)nc2ccc(C(F)(F)F)cc21 = 95%
• CCn1c(C(C)(C)NS(=O)(=O)c2ccc(Cl)cc2)nc2ccccc21 = 96.2%
• CCn1c(C2(NS(=O)(=O)c3ccc(F)cc3)CCC2)nc2ccc(C(F)(F)F)cc21 = 84.7%
• CCn1c([C@@H](C)NS(=O)(=O)c2ccc(Cl)cc2)nc2cc3c(cc21)OCO3 = 93.9%
• CCn1c([C@@H](C)NS(=O)(=O)c2ccc(C)nc2)nc2ccc(C(F)(F)F)cc21 = 91.8%
• CCn1c([C@@H](C)NS(=O)(=O)c2ccc3c(c2)OCCN3C)nc2ccc(C(F)(F)F)cc21 = 93.3%

----------
We begin with a simple list: items and their reported inhibition at 3.7 µM.
Biological target: Edg-1/S1P1 receptor (Homo sapiens, UniProt P21453)
Construct: expressed in transfected cells; host or cells: human osteogenic sarcoma U2OS cells: Edg-1 Transfluor U2OS WT Clone #37 (assay I), Edg-1 Transfluor U2OS Clone #3 (assay II)
Test: In vitro cell based receptor activation assay - Transfluor assay (assay I or II; beta-arrestin GFP relocalization after S1P stimulation)
Conditions: at 3.70 μM (titrated from top concentration 100 μM)
RECORDED_ENDPOINT: inhibition at 3.7 µM

* CCn1c(C(C)NS(=O)(=O)c2ccc(Cl)cc2)nc2cnccc21 (centres unmarked) [Example 13] | 72.8%
* CCn1c([C@@H](C)NS(=O)(=O)c2ccc(Cl)cc2)nc2ccc(SC)cc21 (stereo in doubt) [Example 79] | 94.9%
* CCn1c([C@@H](C)NS(=O)(=O)c2cnc(Cl)c(Br)c2)nc2ccc(C(F)(F)F)cc21 [Example 49] | 92.1%
* CC(NS(=O)(=O)c1ccc(Cl)cc1)c1nc2ccccc2n1CC1CC1 (centres unmarked) [Example 18] | 100%
* CCn1c([C@@H](C)NS(=O)(=O)c2ccc(Cl)cc2)nc2nnc(Cl)cc21 [Example 87] | 62.4%
* CCn1c([C@@H](C)NS(=O)(=O)c2ccc(Cl)cc2)nc2cnc(Cl)cc21 [Example 97] | 88.9%
* CC(NS(=O)(=O)c1ccc(Cl)cc1)c1nc2ccccc2n1CC(F)(F)F (centres unmarked) [Example 23] | 88.1%
* CCn1c([C@@H](C)NS(=O)(=O)c2cnc(C)n2C)nc2ccc(C(F)(F)F)cc21 [Example 32] | 66.5%

Data origin, for the record: patent US20100029643A1
